Experiment: TOR pathway RTG branch CIT2 reporter changes – S. cerevisiae, GFP fusion, multiplex flow cytometry, primary screen (AID 1870);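 also: barcoded CIT2-GFP strain pooled with four other GFP strains with rapamycin as positive control; median GFP fluorescence per well over plate mean of DMSO wells so 100% = DMSO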
Conditions: S. cerevisiae CIT2-GFP expression, 3 h, at 10 µM, stronger effect = higher value
Measured Property: percent response of DMSO control (%)
Supply the numeric figure in %, leaving out any unit text.

Take a look at these entries with their results.
Molecule: C[C@@H]1CCC[C@H](C)N1NC(=O)c1ccc(Cl)c(S(N)(=O)=O)c1
percent response of DMSO control [%]: 107
//
Molecule: O=C(NCc1ccc(N2CCCC2=O)cc1)c1ccc(F)cc1
percent response of DMSO control [%]: 100
//
Molecule: O=C(Cc1cccc2ccccc12)N1CC[C@@]2(O)CCCC[C@H]2C1
percent response of DMSO control [%]: 104

Problem: What measured percent response of DMSO control goes with `C[C@]12CCC(=O)C=C1[C@H](O)C[C@@H]1[C@@H]2[C@@H](O)C[C@@]2(C)[C@H]1CC[C@]2(O)C(=O)CO` ?
Result: 102

Problem: What measured percent response of DMSO control goes with `Cc1cccc(NC(=O)c2cc3ccccc3o2)c1` ?
Result: 112

Problem: What measured percent response of DMSO control goes with `O=c1ccc2c(o1)/C(=C/C=C(Cl)Cl)CCC2` ?
Result: 90.1

Problem: What measured percent response of DMSO control goes with `CC1CCN(CCOCCOc2ccccc2Br)CC1` ?
Result: 93.1

Problem: What measured percent response of DMSO control goes with `CCOc1ccc(OCCSc2nc3ccccc3[nH]2)cc1` ?
Result: 101

Problem: What measured percent response of DMSO control goes with COc1ccccc1N=CC1=C(O)CC(c2ccccc2)CC1=O (stereo not given) ?
Result: 96.6

Problem: What measured percent response of DMSO control goes with c1ccc(-c2ccc(C(c3ccccc3)n3ccnc3)cc2)cc1 (stereo not given) ?
Result: 101

Problem: What measured percent response of DMSO control goes with Cn1cc(C2N3CC4(C)CN2CC(C)(C3)C4=O)c2ccccc21 (stereo not given) ?
Result: 98.9

Problem: What measured percent response of DMSO control goes with `Cc1ccc2ncnc(NCCCCCC(=O)O)c2c1` ?
Result: 105

Problem: What measured percent response of DMSO control goes with `O=C(NC1CCCCC1)c1cc2nc(-c3ccco3)cc(C(F)(F)F)n2n1` ?
Result: 102

Problem: What measured percent response of DMSO control goes with O=C(Nc1ncc2c(n1)CC(c1ccco1)CC2=O)c1ccco1 (stereo not given) ?
Result: 95.8

====

Recorded response values for a group of compounds are listed next.
Assay: cytosolic pH regulators acting via V-ATPase – S. cerevisiae, pHLuorin, HTS validation (AID 504600);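 also: plate controls were DMSO for no effect and reference compound for full effect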
Conditions: V-ATPase proton transport, at 10 µM, stronger effect = higher value
Supply the numeric figure in %, leaving out any unit text.

Take a look at these entries with their results.
Compound: O=C(O)/C=C/c1cccc(OCc2ccccc2)c1
Unit Abbrev: %
response: -4.03
--
Compound: CC(C[N+](C)(C)C)OC(N)=O (configuration not stated)
Unit Abbrev: %
response: 0.77

Problem: What measured response goes with Cc1ccc2c(c1C)NC(C(=O)O)C1CC=CC21 (configuration not stated) ?
Result: 2.2

Problem: What measured response goes with `O=C(N1CCCC1)C12CC3CC(C1)CC(C(=O)N1CCCC1)(C3)C2` ?
Result: 0.92

Problem: What measured response goes with `O=C(c1cc2cc(Br)ccc2o1)N1CCCC1` ?
Result: 0.97

Problem: What measured response goes with `O=C(O)CCSCCC(=O)O` ?
Result: 1.2

Problem: What measured response goes with `CCOC(=O)C1=C(C)N[C@@]2(O)c3ccccc3C(=O)[C@@]12O` ?
Result: 13

Problem: What measured response goes with `CC(C)(C)N1NC2(CCCCC2)NC1=S` ?
Result: 0.59

Problem: What measured response goes with O=C1CC(c2ccc(OCCCCCOc3ccc(C4CC(=O)NC4=O)cc3)cc2)C(=O)N1 (configuration not stated) ?
Result: 2.37

Problem: What measured response goes with `CC(C)c1ccc(NC(=O)CNS(=O)(=O)c2ccc(F)cc2)cc1` ?
Result: -3.77

Problem: What measured response goes with `Nc1ccc(S(=O)(=O)NC(=O)c2ccccc2)cc1` ?
Result: 5.4

Problem: What measured response goes with CC(C)COCC1CC2(CC(C)(c3csc(N)n3)OC2=O)C(=O)O1 (configuration not stated) ?
Result: -4.21

Problem: What measured response goes with `Cc1ccccc1NC(=O)c1c(C)cc(=O)oc1C` ?
Result: 1.91

Problem: What measured response goes with `COc1ccccc1OS(=O)(=O)c1ccc(NC(C)=O)cc1` ?
Result: -0.65

Problem: What measured response goes with `COc1cc(C(=O)Nc2ccc(N(C)C)cc2)c([N+](=O)[O-])cc1OC` ?
Result: 0.28

Problem: What measured response goes with `COc1ccccc1OCC(=O)O` ?
Result: -0.38
